Target system: 5-HT7 receptor (Homo sapiens)
Sequence (P34969 whole entry): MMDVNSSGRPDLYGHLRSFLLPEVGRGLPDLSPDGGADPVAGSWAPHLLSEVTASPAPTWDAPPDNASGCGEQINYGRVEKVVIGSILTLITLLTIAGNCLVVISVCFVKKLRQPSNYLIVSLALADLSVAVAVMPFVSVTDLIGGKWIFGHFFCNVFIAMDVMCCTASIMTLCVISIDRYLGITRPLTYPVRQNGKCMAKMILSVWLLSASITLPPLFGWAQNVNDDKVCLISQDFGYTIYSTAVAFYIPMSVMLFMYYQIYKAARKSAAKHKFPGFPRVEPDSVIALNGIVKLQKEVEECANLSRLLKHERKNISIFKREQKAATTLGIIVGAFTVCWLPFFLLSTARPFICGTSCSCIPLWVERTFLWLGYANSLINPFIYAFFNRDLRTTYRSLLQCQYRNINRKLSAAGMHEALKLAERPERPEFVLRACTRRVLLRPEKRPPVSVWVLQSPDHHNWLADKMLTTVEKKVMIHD
Protocol summary: Binding to 5-HT7 receptor (selectivity)
Design: dose or concentration left out as unconfirmed
Test conditions: selectivity versus 5-HT6; read-out: percent inhibition for the 5-HT7 receptor
Assay endpoint: inhibition

Example entries begin here.
Molecule: O=S(=O)(c1ccccc1)n1cc(C2=CCN3CCCC3C2)c2cc(F)cc(F)c21 (racemic) [Example 6jj]
Result: < 20%
--
Molecule: O=S(=O)(c1ccccc1Br)n1cc(C2=CCN3CCCC3C2)c2cc(F)ccc21 (racemic) [Example 6cc]
Result: < 20%
--
Molecule: O=S(=O)(c1ccc(Cl)cc1)n1cc(N2CCN3CCCCC3C2)c2ccccc21 (racemic) [Example 6p]
Result: < 20%
--
Molecule: COc1ccc2c(c1)c(C1=CCN3CCCC3C1)cn2S(=O)(=O)c1ccccc1 (racemic) [Example 6mm]
Result: < 20%

Now look at this one.
Prompt: Read off the recorded inhibition for COc1ccc(S(=O)(=O)n2cc(C3=CCN4CCCC4C3)c3cc(F)ccc32)cc1 (racemic) [Example 6ee]
Completion: < 20%
